- TARGET: recombinant human KLK5 (human) (UniProt Q9Y337)
- Sequence (Q9Y337 67-293): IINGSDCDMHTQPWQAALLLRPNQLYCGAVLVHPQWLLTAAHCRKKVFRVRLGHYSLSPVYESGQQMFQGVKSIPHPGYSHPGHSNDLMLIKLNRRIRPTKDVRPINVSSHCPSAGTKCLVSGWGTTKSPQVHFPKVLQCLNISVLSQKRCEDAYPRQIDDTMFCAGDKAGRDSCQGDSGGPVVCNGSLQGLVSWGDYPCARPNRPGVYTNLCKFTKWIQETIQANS
- PROCEDURE_DETAILS: pro-KLK1 coupled assay, 0.5 nM KLK5
REPORTED_PROPERTY: IC50 (pM)
Numeric only. Scale: pM

10C8 (antibody, V domains shown) VH: QSVKESEGGLFKPTDNLTLTCTVSGFSLSSYGVSWVRQAPGNGLEYIGFIGSGGFAYYASWAKSRSTITRNTNLNTVTLKMTSLTAADTATYFCARDDVGGGRSLDIWGPGTVVTVSS VL: NIVMTQTPASVEVAMGGTVIIKCQASQSISTYLSWYQQKPGQPPKLLIYSASTLASGVSSRFEGSGSGTQFTLTISGVQCADAATYYCHQDYTSNNVDNTFGGGTEVVVK
151
2-3F4 (antibody, V domains shown) VH: QSVEESRGGLIKPTDTLTLTCTASGFSLSNYGVSWVRQAPGNGLEYIGFIGYGGSTYYASWAKSRSTITRNTNLNTVTLQMTSLTAADTATYFCARLCGVDCADALDSWGPGTLVTVSS VL: AYYMTQTPASVEVAVGGTVTIKCQASEDIGSYCSWYQQKPGQPPKLLIYDASDLASGVPSRFKGSGSGTDFTLTISGVQCDDAATYYCQQDYTGNNVDNTFGGGSEVVVK
129
8F5 (antibody, V domains shown) VH: QSVKESEGGLFKPTDTLTLTCTVSGFSLSSYPISWVRQAPGNGLEWIGYITSEYGVAYYATWAESRSTITRNTNLNTVTLKMTSLTAADTATYFCVRENPTYGYAYDAWGPGTLVTVSS VL: AYDLTQTPASVEAAVGGTVTINCQASESIGNELSWYQQKSGQPPKLLIYQASTLASGVPSRFKGSGSGTDFTLTISDLECADAATYYCAQGFSSSGVENVFGGGTEVVVK
149

Now for a further binder.
query: Quick check: IC50 of 10C5 (antibody, V domains shown) VH: QSLEESGGGLVKPTDTLTLTCTVSGFSLSSYGVTWVRQAPGRGLEWIGYITSNYGVSYYASWAKSRSTITRNTNLNTVTLKMTSLTAADTATYFCARENPDYGYAYDAWGPGTLVTVSV VL: AYDMTQTPASLEAAVGGTVTINCQASESISNELSWYQQKPGQPPDLLIYYASTLASGVPSRFKGSGSGTEFTLTISDLECADAATYYCAQGFGSSGVENVFGGGTEVVVK ?
result: 111
